Recorded values, source patent US20060270631A1.

# EXPERIMENT_NOTES: Pharmacokinetics in mice
# Format: in vivo, mouse
# MEASUREMENT_SETUP: female, Swiss-Webster, mouse, whole blood; Oral 50 mg/kg, mice
METRIC: half-life
# include the unit after the value

// O=C(NCc1ccncc1)C12CC3CC(C1)CC(c1ccc(Cl)cc1)(C3)C2 : half-life value = 4.5 h

====

# EXPERIMENT_NOTES: Pharmacokinetics in mice
# Type: in vivo, mouse
# MEASUREMENT_SETUP: female, Swiss-Webster, mouse, whole blood; IV 50 mg/kg, mice
METRIC: half-life (h)
Lab book: enter the figure in h, no units written.

Looking up O=C(NCc1ccncc1)C12CC3CC(C1)CC(c1ccc(Cl)cc1)(C3)C2 , I found its half-life recorded as 1.4
